Here, each record is paired with measured pKi data.
# systemName: GABAa receptor
# testDescription: [3H]-RO15-1788 (Flumazenil) binding assay for GABAa receptor activity, rat cortical tissue
# details: 0.5 nM 3H-RO15-1788; rat cortical tissue homogenate; 30 min at 4° C.; nonspecific binding with 1.0 mM diazepam
Reminder that pKi means the negative base-10 logarithm of the concentration expressed in mol/L.

Worked examples, 2 compounds total:
O=c1[nH]c2c(n1-c1nc3ccc(F)c(F)c3o1)CCCCC2 ... 8.52
O=c1[nH]c2cc(F)ccc2n1-c1nc2cccc(F)c2o1 ... 7.85

Lab book: pKi of O=c1[nH]c2cc(F)ccc2n1-c1nc2ccc(F)cc2o1 noted as 8.30

Field pKi (entry O=c1[nH]c2c(n1-c1nc3ccc(F)c(F)c3o1)CCCC2 ) reads 7.68

The value of pKi measured for the compound O=c1[nH]c2c(n1-c1nc3ccc(F)cc3o1)CCCCC2 turned out to be 8.34

The compound listed as COc1ccc2oc(-n3c4c([nH]c3=O)CCCC4)nc2c1 shows pKi equal to 7.09

The measured values listed here are drawn from patent US5637725A.
